test_name: Solubility of crystal form A in different solvents
Type: physicochemical
measurement_setup: organic solvent or mixture, thermodynamic from solid; Methanol, room temperature
measured_parameter: solubility

// solubility value for Cn1c(=O)n(C[C@H]2CC[C@@](C)(O)CC2)c(=O)c2c1ncn2CC1CC1 [Crystal Form A] : ~28.7 mg/mL

###

test_name: Solubility of crystal form A in different solvents
Type: physicochemical
measurement_setup: organic solvent or mixture, thermodynamic from solid; Isopropyl acetate, room temperature
Protocol: About 2 mg of crystal form A was weighed put in a 1.5 mL liquid phase vial, to which the following solvents were respectively added by pipettes by stages to dissolve the crystal form A while manually vibrating.
measured_parameter: solubility

Given item Cn1c(=O)n(C[C@H]2CC[C@@](C)(O)CC2)c(=O)c2c1ncn2CC1CC1 [Crystal Form A] , the value recorded as its solubility is ~12 mg/mL
